Reported values of pKd for individual entries
MEASURED_ON: T1, biotinylated Aβ1-40 peptide (biotinylated (N-biotinylated in Example 7))
T1 construct: captured on streptavidin (SA) chip; also called Biotinylated Aβ peptide 1-40; Aβ1-40 on SA chip
PROCEDURE_DETAILS: SPR, Fab over Aβ1-40 on SA chip; KD=koff/kon
pKd: −log10 of the molar value.
PROPERTY: pKd

9TL variant M42 Fab (Fab, V domains shown, Fab; human IgG2 CH1 and kappa CL) VH: QVQLVQSGAEVKKPGASVKVSCKASGYYTEAYYIHWVRQAPGQGLEWMGRIDPATGNTKYAPRLQDRVTMTRDTSTSTVYMELSSLRSEDTAVYYCASLYSEPVYWGQGTTVTVSS VL: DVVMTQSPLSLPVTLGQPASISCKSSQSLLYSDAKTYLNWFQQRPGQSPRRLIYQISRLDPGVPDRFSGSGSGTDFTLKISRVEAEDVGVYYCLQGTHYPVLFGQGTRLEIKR; 7.33
9TL variant W1 Fab (Fab, V domains shown, Fab; human IgG2 CH1 and kappa CL) VH: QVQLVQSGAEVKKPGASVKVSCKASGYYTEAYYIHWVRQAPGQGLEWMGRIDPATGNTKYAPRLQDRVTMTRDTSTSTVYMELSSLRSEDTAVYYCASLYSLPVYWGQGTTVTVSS VL: DVVMTQSPLSLPVTLGQPASISCKSSQSLLASDSKTYLNWFQQRPGQSPRRLIYQISRLDPGVPDRFSGSGSGTDFTLKISRVEAEDVGVYYCLQGTHYPVTFGQGTRLEIKR; 7.55
9TL Fab fragment (Fab, V domains shown, Fab from E. coli with human IgG2 CH1 (P01859) and human kappa constant domain (CAA09181)) VH: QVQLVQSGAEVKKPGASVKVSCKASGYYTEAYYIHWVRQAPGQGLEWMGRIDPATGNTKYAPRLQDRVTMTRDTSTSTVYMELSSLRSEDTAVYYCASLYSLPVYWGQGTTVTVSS VL: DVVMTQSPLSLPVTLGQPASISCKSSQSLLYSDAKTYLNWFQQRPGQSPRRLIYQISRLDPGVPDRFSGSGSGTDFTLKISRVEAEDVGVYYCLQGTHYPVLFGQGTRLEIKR; 8.95
